Hey, just so you know, these numbers are from ChEMBL document CHEMBL3045259.

- Test system: Bacillus subtilis
- assay-overview: Antibacterial activity against Bacillus subtilis assessed as growth inhibition after 24 hr by NCCLS broth micro-dilution method
- Assay type: functional
assay-endpoint: MIC (µg/mL)
Response body: numeric value in µg/mL, unit text excluded.

What the record says about NS(=O)(=O)c1ccc(NC(=S)NC(=O)c2cc([N+](=O)[O-])ccc2Cl)cc1 : MIC is 0.156

For this molecule ( NS(=O)(=O)c1ccc(NC(=S)NC(=O)c2ccc(Cl)cc2[N+](=O)[O-])cc1 ), measured MIC is 0.156

Value of measured MIC for the entry Cc1cccc(C(=O)NC(=S)Nc2ccc(S(N)(=O)=O)cc2)c1 : 0.313

The measured MIC associated with COc1cccc(C(=O)NC(=S)Nc2ccc(S(N)(=O)=O)cc2)c1 reads 0.313

Form field MIC, entry CCCCCCCCCCCC(=O)NC(=S)Nc1ccc(S(N)(=O)=O)cc1 : 0.313

Looking up NS(=O)(=O)c1ccc(NC(=S)NC(=O)c2cccc(F)c2)cc1 , I see its MIC listed as 0.313

The molecule identified as Cc1ccc(C(=O)NC(=S)Nc2ccc(S(N)(=O)=O)cc2)cc1 registered its MIC at 0.313

Lab note: O=C(O)c1cn(C2CC2)c2cc(N3CCNCC3)c(F)cc2c1=O [CIPROFLOXACIN] gave MIC of 0.625

Summary for this molecule, NS(=O)(=O)c1ccc(NC(=S)NC(=O)c2ccco2)cc1 : MIC is 0.625

MIC reported for this molecule CCC(CC(=O)NC(=S)Nc1ccc(S(N)(=O)=O)cc1)c1ccccc1 (stereo not given) : 0.313
